# Tested on: T-47D breast
# assay-method-text: NCI tumour cell line growth inhibition, 48 h; in the data active means GI50 below about 0.43 µM; inactive means the rest
Output constraint: value belongs to active, inactive

Use these answered entries as a reference point.
>>> discrete_label("CCCCc1ccc(C(N)=O)nc1")
"inactive"
>>> discrete_label("C=CC(=O)N1CC[C@@H](Oc2nc(Nc3ccc(N4CCC(N5CCN(C)CC5)CC4)cc3)c(C(N)=O)nc2CC)C1")
"inactive"
>>> discrete_label("N#Cc1c(-c2ccc(Cl)cc2)n([O-])c2ccccc2[n+]1=O")
"inactive"
>>> discrete_label("COc1ccc(C(=O)CC(Cl)=C(Cl)Cl)cc1")
"inactive"
>>> discrete_label("Oc1c(Br)cc(Br)c2cccnc12")
"inactive"
>>> discrete_label("COc1ccc2c(c1)CCC1C2CCC2(C)C1CC[C@@]2(O)CNC(=O)/C=C/c1ccc(O)c(O)c1 (some centres undefined)")
"inactive"

Query: Entry C[As](C)SCC(COC(=O)c1ccccc1)OC(=O)c1ccccc1 (centres undefined) : call = ?
Reply: active

Query: Entry "Cc1cc(N2CCOCC2)nc(N(CCNc2ccnc3cc(Cl)ccc23)Cc2cccs2)n1" : call = ?
Reply: inactive

Query: Entry "N#Cc1ccccc1C#C/C=C\C#Cc1cnccn1" : call = ?
Reply: inactive

* * *

# System: LOX IMVI melanoma
# assay-method-text: NCI tumour cell line growth inhibition, 48 h
In this section we review reported TGI values for a set of compounds.
Unit µM implied. Number only.

Below are worked cases with known answers.
>>> test_result("CN(C)/C=C/c1ccnc2c1C(=O)c1ccccc1C2=O")
20.7
>>> test_result("CN(C)CCCNc1ccc2nnn3c4ccc([N+](=O)[O-])cc4c(=O)c1c23")
2.22

Query: Send back LOX IMVI melanoma TGI of "O=S(=O)(CC#CCS(=O)(=O)c1ccccc1)c1ccccc1" only.
Reply: 3.32

* * *

# System: OVCAR-5 ovarian
# assay-method-text: NCI tumour cell line growth inhibition, 48 h
measured-endpoint: TGI

>>> test_result("Cc1nn(-c2ccccc2)c2ncc3c(c12)C(=O)N(Cc1ccccc1)C3=O")
"> 100 µM"
>>> test_result("COc1ccc(/C=C2\\CC(C)CC3C2=NN(C(C)=O)C3c2ccc(OC)c(OC)c2)cc1OC (stereo not drawn)")
"33.8 µM"
>>> test_result("CN1C(=N\\S(=O)(=O)c2ccc(Cl)cc2)/C(=N/N=P(c2ccccc2)(c2ccccc2)c2ccccc2)c2ccccc21")
"> 100 µM"
>>> test_result("COc1ccc(/C(C)=C(\\c2ccc(Cl)cc2)c2ccc(OCCN3CCCCC3)cc2)cc1F")
"9.45 µM"
>>> test_result("CC(=O)OC12CCCCC1C1(CCCC1)NC2=O (stereo not drawn)")
"> 100 µM"
>>> test_result("COC[C@H](Cc1ccccc1)N=Cc1ccccc1")
"> 100 µM"
>>> test_result("C=C(Cl)C(Cl)(CBr)CCC(Cl)C(C)C (stereo not drawn)")
"23.9 µM"
>>> test_result("CC(C)(C)OC(=O)N1CC(COS(C)(=O)=O)c2ccc(O)cc21 (stereo not drawn)")
"5.86 µM"

Query: Complete the entry with TGI for O=C(O)CCCCCNC(=O)CCC(CN(CC(=O)OCc1ccccc1)CC(=O)OCc1ccccc1)N(CC(=O)OCc1ccccc1)CC(=O)OCc1ccccc1 (stereo not drawn)
Reply: 32.6 µM

Query: Complete the entry with TGI for CCN(CC)CCCC(C)NC(=S)N/N=C(\C)c1ccccn1 (stereo not drawn)
Reply: > 100 µM

Query: Complete the entry with TGI for "COc1cc(NS(C)(=O)=O)ccc1N1Cc2cnc3ccc4[nH]ccc1c4c23"
Reply: > 100 µM

Query: Complete the entry with TGI for "Cc1ccc(-c2c(C#N)c(O)n(NS(=O)(=O)c3ccccc3)c(=O)c2C#N)cc1"
Reply: > 100 µM

Query: Complete the entry with TGI for "O=C1/C(=C/c2ccc([N+](=O)[O-])s2)Oc2ccc(Cl)cc21"
Reply: 3.01 µM

Query: Complete the entry with TGI for "COC(=O)C1(C(=O)OC)CC2=C(S(=O)(=O)c3ccccc3)C[C@@H](C#N)[C@H]2C1"
Reply: > 100 µM

Query: Complete the entry with TGI for "COC(=O)c1ccc2[nH]c3c(c2c1)CC(=O)Nc1ccccc1-3"
Reply: > 100 µM

* * *

# Test system: SNB-19 CNS
# assay-method-text: NCI tumour cell line growth inhibition, 48 h; in the data active means GI50 below about 0.43 µM; inactive means the rest
Output constraint: value belongs to T for active, F for inactive

Use these answered entries as a reference point.
>>> discrete_label("COc1ccc(C2CC(c3cccc(Nc4ccnc5cc(Cl)ccc45)c3)=NN2c2ccc(Cl)cc2)cc1 (centres undefined)")
"F"
>>> discrete_label("Cc1cc2c(C#N)n3c(c2cc1C)C(=O)C(c1ccccc1)Oc1ccccc1-3 (centres undefined)")
"F"
>>> discrete_label("COc1ccc(/C=C2\\CC(C)CC3C2=NN(C(C)=O)C3c2ccc(OC)c(OC)c2)cc1OC (centres undefined)")
"F"
>>> discrete_label("COc1ccc(-c2nccn2-c2cc(OC)c(OC)c(OC)c2)cc1")
"F"
>>> discrete_label("COC(=O)[C@@H](C)C[C@H](Cc1ccccc1)NC(=O)c1cccc([C@@H](C[C@H](C(C)C)N(C)C(=O)[C@@H](NC(=O)[C@H]2CCCCN2C)C(C)C)OC(C)=O)n1")
"T"

Query: Entry "N#Cc1ccccc1C#C/C=C\C#Cc1cnccn1" : call = ?
Reply: F

Query: Entry "COc1c(C)cnc(Cn2cnc3c(Cl)nc(N)nc32)c1C" : call = ?
Reply: F

Query: Entry C[As](C)SCC(COC(=O)c1ccccc1)OC(=O)c1ccccc1 (centres undefined) : call = ?
Reply: F

Query: Entry Cc1ccc(S(=O)(=O)NC(CCCCN)C(=O)CCl)cc1 (centres undefined) : call = ?
Reply: F

* * *

# System: NCI-H226 lung
# assay-method-text: NCI tumour cell line growth inhibition, 48 h
measured-endpoint: GI50

Query: Complete the entry with GI50 for "CCS(=O)(=O)Nc1ccc(Oc2ccc(F)cc2F)c(-c2cn(C)c(=O)c3[nH]ccc23)c1"
Reply: 2.46 µM

Query: Complete the entry with GI50 for "Oc1ccc(-c2nc(-c3ccc4oc5ccc(-c6[nH]c(-c7ccc(O)cc7)nc6-c6ccccc6)cc5c4c3)c(-c3ccccc3)[nH]2)cc1"
Reply: 13.3 µM

Query: Complete the entry with GI50 for "COc1cc2c(c(OC)c1OC)-c1c(c3ccc([N+](=O)[O-])cc3c(=O)n1CCCN=[N+]=[N-])C2=O"
Reply: 28.4 µM

Query: Complete the entry with GI50 for COc1ccc2c(c1)CCC1C2CCC2(C)C1CC[C@@]2(O)CNC(=O)/C=C/c1ccc(O)c(O)c1 (stereo partly specified)
Reply: 9.76 µM

* * *

# Tested on: RPMI-8226 leukemia
# assay-method-text: NCI tumour cell line growth inhibition, 48 h
measured-endpoint: GI50

Below are worked cases with known answers.
>>> test_result("CCN(CC)CCCC(C)NC(=S)N/N=C(\\C)c1ccccn1 (stereo not drawn)")
"5.84 µM"
>>> test_result("Nc1cc(N)c2nc(-c3ccccc3)c(Sc3ccc(F)cc3)nc2c1")
"28.3 µM"

Now look at this entry.
Query: Complete the entry with GI50 for COc1cc(C2C3=C(COC3=O)N(CCO)c3cc4c(cc32)CCC4)cc(OC)c1OC (stereo not drawn)
Reply: 0.135 µM

* * *

# System: K-562 leukemia
# assay-method-text: NCI tumour cell line growth inhibition, 48 h
In this section we review reported TGI values for a set of compounds.

Below are worked cases with known answers.
>>> test_result("N#CC1=C(N)Oc2c(ccc3ccccc23)C1c1ccccc1Cl (configuration not stated)")
"> 43.5 µM"
>>> test_result("CCS(=O)(=O)Nc1ccc(Oc2ccc(F)cc2F)c(-c2cn(C)c(=O)c3[nH]ccc23)c1")
"> 62.6 µM"
>>> test_result("CCC(c1ccc(N(C)C)cc1)C1NC(=S)NC1=O (configuration not stated)")
"59.6 µM"
>>> test_result("Cc1ccc(-c2cn3c(nc4ccccc43)c(C)n2)cc1")
"> 100 µM"

Query: Complete the entry with TGI for "CC1=C2CC3=C(C)C(=O)O[C@H]3C[C@@H](C)[C@@H]2CC1"
Reply: > 100 µM

Query: Complete the entry with TGI for "COC(=O)c1cc(CNCCc2c[nH]c3ccccc23)on1"
Reply: > 100 µM

Query: Complete the entry with TGI for O=C(NC(c1ccccc1)C(O)C(=O)OCc1ccc2c(c1)C(=O)c1ccccc1C2=O)c1ccccc1 (configuration not stated)
Reply: > 100 µM

Query: Complete the entry with TGI for "Nc1nc(N)c2nn(-c3ccc(C(=O)O)cc3)nc2n1"
Reply: > 100 µM

Query: Complete the entry with TGI for Cc1[nH]c(=O)nc2c1C(=O)N(C(C)C)C(NC(C)C)S2 (configuration not stated)
Reply: > 100 µM

Query: Complete the entry with TGI for "Cc1nc2c(=O)n(C)c(=O)nc-2n(-c2ccc(Cl)cc2)c1C"
Reply: > 100 µM

Query: Complete the entry with TGI for CC(C)(Oc1ccc(C2C[C@H]2Cl)cc1)C(=O)O (some centres not stated)
Reply: > 100 µM

Query: Complete the entry with TGI for COC(=O)c1c(OC(=O)c2ccccc2)noc1CC(=O)OC1C=CCCC1 (configuration not stated)
Reply: > 100 µM

Query: Complete the entry with TGI for "O=C1c2ccccc2C(=O)c2c1c1cc(O)ccc1n2Cc1ccc(Cl)cc1Cl"
Reply: > 100 µM

Query: Complete the entry with TGI for "N#Cc1ccc(NC(=NCC(=O)O)Nc2ccc3ccccc3c2)cc1"
Reply: > 10 µM

Query: Complete the entry with TGI for "CN1CCN(Cc2ccc(NC(=O)c3cncc(C#Cc4c(N)ncc5ccc(F)cc45)c3)cc2C(F)(F)F)CC1"
Reply: 1.07 µM
